The measured values listed here are drawn from PubChem BioAssay.

# ASSAY_DETAILS: small-molecule binders of probe aLefty1, primary screen, biochemical, small-molecule microarray, 635/667 nm fluorescence (AID 1153);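 note: score merges spot fluorescence with signal-to-noise ratio from the scanned slide images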
# COND: higher = more signal
VALUE_TYPE: composite z-score

[[record]]
compound = "CC(CO)N1C(=O)[C@@H]2C3C(=O)OCCC/C=C\\[C@H]3OC23C=CCN(Cn2nnc4ccccc42)C(=O)[C@@H]13 (some centres not stated)"
value_type = "composite z-score"
data_value = -0.0035

[[record]]
compound = "C=CCC(OC(C)=O)[C@@H]1[C@@H](N(Cc2cc3ccccc3o2)C(=O)c2ccc(C)cc2)c2cc(OCCCO)ccc2N1C(=O)Cc1ccc2ccccc2c1 (some centres not stated)"
value_type = "composite z-score"
data_value = -0.103

[[record]]
compound = "C=CCN1C(=O)[C@@]2(O[C@@H](CCO)[C@H]([Si](C)(C)c3ccc(OC)cc3)[C@H]2C)c2cc(N3C(=O)c4ccccc4Oc4ccccc43)ccc21"
value_type = "composite z-score"
data_value = -0.147

[[record]]
compound = "CC(=O)N1Cc2ccccc2C[C@]2(N=C(c3ccc(OCCCO)cc3)O[C@@H]2c2ccccc2)C1=O"
value_type = "composite z-score"
data_value = -0.0536

[[record]]
compound = "Cc1ccc(S[C@]2(C(=O)NC(C)C)CC(=O)N(C3Cc4ccccc4C3)[C@@H]2c2ccc(CO)cc2I)cc1"
value_type = "composite z-score"
data_value = -0.788

[[record]]
compound = "C=CCOC(=O)[C@H]1[C@@H]2C(=O)O[C@@H](c3ccccc3)[C@@H](c3ccccc3)N2[C@@H](c2ccc(OCCOC(=O)[C@H]3C[C@H]4C(=O)N[C@@H](Cc5ccccc5)C(=O)N4[C@H]3c3ccc(O)cc3)cc2)[C@]12C(=O)Nc1ccc(I)cc12"
value_type = "composite z-score"
data_value = -0.0162

[[record]]
compound = "COc1ccc([Si](C)(C)[C@H]2[C@H](CCn3cc([C@H](O)c4ccccc4)nn3)O[C@@]3(C(=O)N(Cc4ccc(N5CCOC5=O)cc4)c4ccccc43)[C@@H]2C)cc1"
value_type = "composite z-score"
data_value = -0.147

[[record]]
compound = "C=C(COC)/C(=C/C[C@@H](OC(=O)c1ccncc1)c1cccc(OCCO)c1)c1cnc2ccccc2c1"
value_type = "composite z-score"
data_value = 0.664

[[record]]
compound = "C=CCOC(=O)[C@@H]1[C@H]2C(=O)O[C@H](c3ccccc3)[C@H](c3ccccc3)N2[C@H](c2ccc(OCCOC(=O)[C@H]3C[C@H]4C(=O)N[C@@H](CCCCN(C)C)C(=O)N4[C@H]3c3cccc(OCCO)c3)cc2)[C@@]12C(=O)Nc1ccc(I)cc12"
value_type = "composite z-score"
data_value = 0.0665

[[record]]
compound = "COc1ccc([Si](C)(C)[C@H]2[C@H](CCn3cc(CCO)nn3)O[C@@]3(C(=O)N(Cc4ccc(N5C(=O)c6cccc7cccc5c67)cc4)c4ccccc43)[C@@H]2C)cc1"
value_type = "composite z-score"
data_value = 0.108

[[record]]
compound = "O=C1NC(=O)C2C1C=CC(C(O)c1ccc(Br)cc1)N2Nc1ccccn1 (configuration not stated)"
value_type = "composite z-score"
data_value = 0.5

[[record]]
compound = "COc1ccc([Si](C)(C)[C@H]2[C@H](CCn3cc([C@H](O)c4ccccc4)nn3)O[C@@]3(C(=O)N(Cc4ccc(N5CCC5=O)cc4)c4ccccc43)[C@@H]2C)cc1"
value_type = "composite z-score"
data_value = 0.0341

